- Protocol description: qHTS of pediatric cancer cell lines to identify multiple opportunities for drug repurposing: Primary screen for OHS-50 cells (AID 1347103); further: nearly all actives have a fitted effect of over 40% in size
- Condition details: OHS-50 osteosarcoma viability, CellTiter-Glo luminescence, 48 h; series mostly up to 57.3 µM
Records with an inconclusive call do not appear. Activity calls are given as the source filed them. The call rests on the fitted dose curve; in most records, active means well fitted cell-killing curve with a large enough effect; inconclusive means small, poorly fitted or top-dose-only effect; inactive means no such curve, though single readings can be large or run the other way.
Write down one outcome, taken from 1 (yes) (active), 0 (no) (inactive)

compound=Cc1ccc(/C=N/NC(=O)c2ccccc2Oc2ccccc2)o1 cat="1 (yes)"
compound="CCCCCNC(=O)N1CCC(CN(Cc2ccc(Cl)cc2)Cc2ccc([N+](=O)[O-])s2)C1 (stereo not drawn)" cat="1 (yes)"
compound="CNC1CCC(N(Cc2cccc(-c3ccncc3)c2)C(=O)c2sc3c(F)ccc(F)c3c2Cl)CC1 (stereo not drawn)" cat="1 (yes)"
compound=NC(=O)c1cnc(-c2ccc(C3(N)CCC3)cc2)c(-c2ccccc2)c1 cat="1 (yes)"
compound=CCN(CC)CCOC(=O)c1ccc(N)cc1 cat="0 (no)"

Assay outcome for CC[C@@H]1C=C(C)C[C@H](C)C[C@H](OC)[C@H]2O[C@@](O)(C(=O)C(=O)N3CCCC[C@@H]3C(=O)O[C@H](C(C)=C[C@@H]3CC[C@H](Cl)[C@H](OC)C3)[C@H](C)[C@@H](O)CC1=O)[C@H](C)C[C@H]2OC : what was it?
1 (yes)

Recorded test outcome, item CC(C)(C)NC(=O)Nc1cccc(Nc2ncc(F)c(NC(C)(C)CO)n2)c1
0 (no)

Write down the call the test reported for this compound. Item: O=C(CCc1ccc(O)cc1)c1c(O)cc(O)cc1O[C@@H]1O[C@H](CO)[C@H](O)[C@H](O)[C@H]1O
0 (no)

Hi team, can someone confirm the assay call for CN(C)c1cc(NC(=O)CNC(C)(C)C)c(O)c2c1C[C@@H]1C[C@H]3[C@H](N(C)C)C(=O)C(C(N)=O)=C(O)[C@@]3(O)C(=O)C1=C2O ?
0 (no)

How was CC/C(=C(\c1ccccc1)c1ccc(OCCN(C)C)cc1)c1ccccc1 classified in this test?
1 (yes)

Just curious, what result did NC(N)=Nc1nc(CSCC/C(N)=N/S(N)(=O)=O)cs1 get here?
0 (no)

Tell me the assay call for COc1cc(Nc2ncc(F)c(Nc3ccc4c(n3)NC(=O)C(C)(C)O4)n2)cc(OC)c1OC please.
1 (yes)

Assay result, entry COCCOC(=O)C1=C(C)NC2=C(C(=O)CC(c3ccccc3OC)C2)C1c1cccc(O)c1 (stereo not drawn) — outcome?
1 (yes)

Outcome? CN(C)Cc1cccc(N=C(c2ccccc2)c2c(O)[nH]c3cc(C(=O)N(C)C)ccc23)c1
1 (yes)

Outcome logged for CCOC(=O)O[C@]1(C(=O)OCCl)CC[C@@H]2[C@H]3CCC4=CC(=O)C=C[C@]4(C)[C@@H]3[C@@H](O)C[C@@]21C in this assay:
0 (no)

# lookup: test call for O=C(O)Cc1cccc2ccccc12
0 (no)

Tell me the recorded outcome of this test for CC(C)(Cc1ccc2ccccc2c1)NC[C@@H](O)COc1cccc(Cl)c1C#N .
0 (no)

Each compound tested received a call. Report the one for Nc1ncnc2c1ncn2[C@@H]1O[C@H](CO)C[C@@H]1O .
1 (yes)

====

- Tested on: HaCat
- Protocol description: Cytotoxic Profiling of Annotated Libraries Using Quantitative High-Throughput Screening (AID 1296008); further: on the % scale 0 is the no-effect control and ±100 the full control effect; nearly all actives have a fitted effect of over 60% in size
- Condition details: Five cell lines viability, CellTiter-Glo ATP luminescence, 48-72 h; hits give low values
Inconclusive results are not listed.
Could you please report measured max response for the items listed next?
Answers are plain numbers, in %.

// for each molecule in input: emit max response
1. CCN1CCC[C@H]1CNC(=O)c1cc(S(N)(=O)=O)ccc1OC
2. COc1cc2c(cc1OC)CN(CCc1ccc(NC(=O)c3cc(OC)c(OC)cc3NC(=O)c3cnc4ccccc4c3)cc1)CC2
3. O=C(O)C=Cc1ccc(O)c(O)c1

1: -3.98; 2: -17.1; 3: -23.4

Given the molecule Cc1ccc(F)c(NC(=O)Nc2ccc(-c3cccc4[nH]nc(N)c34)cc2)c1 , what is its reported max response?
2.26

Cited source: PubChem BioAssay (NCATS)
